- SYSTEM_TESTED: human 5HT1A receptors (Homo sapiens, UniProt P08908)
- Construct: expressed in transfected cells; host or cells: CHO cells
- Sequence (P08908 whole entry): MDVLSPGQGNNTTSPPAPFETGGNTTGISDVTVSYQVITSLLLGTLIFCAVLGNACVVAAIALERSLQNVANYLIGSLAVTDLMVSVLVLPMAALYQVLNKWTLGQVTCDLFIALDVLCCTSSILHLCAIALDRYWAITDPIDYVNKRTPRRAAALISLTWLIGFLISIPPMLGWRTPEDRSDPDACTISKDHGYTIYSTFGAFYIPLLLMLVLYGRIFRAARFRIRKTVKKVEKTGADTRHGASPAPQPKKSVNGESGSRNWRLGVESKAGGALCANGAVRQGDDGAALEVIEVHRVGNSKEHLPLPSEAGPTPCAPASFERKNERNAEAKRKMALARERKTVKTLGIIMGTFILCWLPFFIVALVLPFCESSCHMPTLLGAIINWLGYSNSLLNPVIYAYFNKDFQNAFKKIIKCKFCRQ
- TEST: [3H] 8-OH-DPAT displacement from 5HT1A receptor in stably transfected CHO cells
- Format: binding
- EXPERIMENTAL_CONTEXT: @ 1 μM, CHO cells with human 5HT1A
PARAMETER_MEASURED: 5HT1A Receptor Affinity, % @ 1 μM (% @ 1 μM)
Give bare numbers, in % @ 1 μM.

{"SAMPLE_SMILES": "COc1cccc(N2CCN(C[C@H]3COc4ccc5nc(C)ccc5c4O3)CC2)c1", "SYSTEM_TESTED": "human 5HT1A receptors (Homo sapiens, UniProt P08908)", "UNITS_OF_MEASURE": "% @ 1 μM", "5HT1A Receptor Affinity, % @ 1 μM": 80}
{"SAMPLE_SMILES": "COc1ccccc1N1CCN(C[C@H]2COc3ccc4nc(C)ccc4c3O2)CC1", "SYSTEM_TESTED": "human 5HT1A receptors (Homo sapiens, UniProt P08908)", "UNITS_OF_MEASURE": "% @ 1 μM", "5HT1A Receptor Affinity, % @ 1 μM": 95}

As a next step, examine the compound that follows.
// query Can you share its 5HT1A Receptor Affinity, % @ 1 μM? I mean this compound: Cc1ccc2c3c(ccc2n1)OC[C@H](CN1CCN(c2cccc4c2OCCO4)CC1)O3
// result 91
